Target: T1, human insulin-like growth factor-1 receptor (HIGF-1R) (human, UniProt P08069 31-1367)
T1 construct: Detergent-solubilised receptor purified on WGA-agarose; also called HIGFIR
T1 sequence (P08069 31-1367 limits assumed): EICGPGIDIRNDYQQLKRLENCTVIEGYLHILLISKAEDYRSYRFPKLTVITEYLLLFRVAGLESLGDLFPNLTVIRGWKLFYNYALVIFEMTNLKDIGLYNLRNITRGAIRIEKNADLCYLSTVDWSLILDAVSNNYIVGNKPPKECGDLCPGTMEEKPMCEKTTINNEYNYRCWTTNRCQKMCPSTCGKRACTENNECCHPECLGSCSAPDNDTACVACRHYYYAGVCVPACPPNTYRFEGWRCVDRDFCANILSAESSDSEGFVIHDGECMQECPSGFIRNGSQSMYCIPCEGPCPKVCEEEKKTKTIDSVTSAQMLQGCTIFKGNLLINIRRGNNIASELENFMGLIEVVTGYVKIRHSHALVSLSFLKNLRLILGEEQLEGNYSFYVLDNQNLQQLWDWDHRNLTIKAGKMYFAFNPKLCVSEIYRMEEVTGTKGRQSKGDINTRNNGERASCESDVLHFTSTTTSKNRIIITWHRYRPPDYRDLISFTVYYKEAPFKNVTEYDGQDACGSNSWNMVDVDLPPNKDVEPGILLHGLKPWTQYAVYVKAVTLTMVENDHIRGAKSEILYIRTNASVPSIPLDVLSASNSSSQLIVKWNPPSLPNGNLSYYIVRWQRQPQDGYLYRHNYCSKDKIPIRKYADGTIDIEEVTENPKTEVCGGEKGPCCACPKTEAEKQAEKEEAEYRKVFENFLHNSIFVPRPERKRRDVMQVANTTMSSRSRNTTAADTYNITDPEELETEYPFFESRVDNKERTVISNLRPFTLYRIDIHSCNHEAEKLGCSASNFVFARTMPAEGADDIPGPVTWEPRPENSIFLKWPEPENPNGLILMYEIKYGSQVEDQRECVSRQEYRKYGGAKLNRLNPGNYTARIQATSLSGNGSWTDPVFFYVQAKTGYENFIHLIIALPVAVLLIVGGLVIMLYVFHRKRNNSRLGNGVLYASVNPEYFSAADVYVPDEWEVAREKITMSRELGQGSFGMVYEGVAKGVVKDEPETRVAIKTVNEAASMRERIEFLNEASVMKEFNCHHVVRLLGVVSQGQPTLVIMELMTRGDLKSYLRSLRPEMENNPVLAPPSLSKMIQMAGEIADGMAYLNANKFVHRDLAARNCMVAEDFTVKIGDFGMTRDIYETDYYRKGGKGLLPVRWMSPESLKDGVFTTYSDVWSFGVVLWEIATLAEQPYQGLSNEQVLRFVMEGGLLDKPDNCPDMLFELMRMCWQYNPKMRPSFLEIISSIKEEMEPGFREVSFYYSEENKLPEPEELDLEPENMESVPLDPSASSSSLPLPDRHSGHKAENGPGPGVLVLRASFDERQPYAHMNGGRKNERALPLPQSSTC
Experiment: 125I-IGF-1 displacement, SPA-assay
Text: In certain cases, a scintillation proximity assay (SPA assay) was used to determine IGF-1R affinity.
Where no end group is shown, it is not given here.
Parameter: pKd. Scope: all listed entries.
Value format note: pKd is -log10 of concentration (mol/L); just state the number.

Lookup: Given the binder QFYGCLLDLSLGVPSFGWRRRCITA (N-terminal Pox (8-amino-3,6-dioxaoctanoic acid)) [F406] , write its reported pKd.
Found: 4.85

Lookup: Quickly give me recorded pKd for EGRVDDAFYEWFERQLGEELCQSWGVRIGWLAGLCPE [F410]
Found: 4.43

Lookup: Report pKd for Ac-SFYSCLESLVQGPAEKSRGQWEGCRK (cysteine pairing not given here, Second row labelled F365) [F365 (row r332, SEQ ID NO 200)]
Found: 6.59

Lookup: Supply measured pKd of XEESFYSCLESLVNGGAERSDGQWEGCREE (N-terminal Lig (lysine with a 2-aminohydroxyacetyl group on the epsilon amino group)) [F194] in your reply.
Found: 4.26

Lookup: Answer with the recorded pKd for the binder listed here: SFYSCLESLVNGPAEKFRGRRDGCR [F380]
Found: 4.34

Lookup: Determine from records and report pKd for ESYGDCRDRPCGDAPNFYDWFVQQASE [F270]
Found: 5.15

From: patent US20110039779A1
